test system: Nav1.5 channel (Homo sapiens, UniProt Q14524)
Sequence (Q14524 whole entry): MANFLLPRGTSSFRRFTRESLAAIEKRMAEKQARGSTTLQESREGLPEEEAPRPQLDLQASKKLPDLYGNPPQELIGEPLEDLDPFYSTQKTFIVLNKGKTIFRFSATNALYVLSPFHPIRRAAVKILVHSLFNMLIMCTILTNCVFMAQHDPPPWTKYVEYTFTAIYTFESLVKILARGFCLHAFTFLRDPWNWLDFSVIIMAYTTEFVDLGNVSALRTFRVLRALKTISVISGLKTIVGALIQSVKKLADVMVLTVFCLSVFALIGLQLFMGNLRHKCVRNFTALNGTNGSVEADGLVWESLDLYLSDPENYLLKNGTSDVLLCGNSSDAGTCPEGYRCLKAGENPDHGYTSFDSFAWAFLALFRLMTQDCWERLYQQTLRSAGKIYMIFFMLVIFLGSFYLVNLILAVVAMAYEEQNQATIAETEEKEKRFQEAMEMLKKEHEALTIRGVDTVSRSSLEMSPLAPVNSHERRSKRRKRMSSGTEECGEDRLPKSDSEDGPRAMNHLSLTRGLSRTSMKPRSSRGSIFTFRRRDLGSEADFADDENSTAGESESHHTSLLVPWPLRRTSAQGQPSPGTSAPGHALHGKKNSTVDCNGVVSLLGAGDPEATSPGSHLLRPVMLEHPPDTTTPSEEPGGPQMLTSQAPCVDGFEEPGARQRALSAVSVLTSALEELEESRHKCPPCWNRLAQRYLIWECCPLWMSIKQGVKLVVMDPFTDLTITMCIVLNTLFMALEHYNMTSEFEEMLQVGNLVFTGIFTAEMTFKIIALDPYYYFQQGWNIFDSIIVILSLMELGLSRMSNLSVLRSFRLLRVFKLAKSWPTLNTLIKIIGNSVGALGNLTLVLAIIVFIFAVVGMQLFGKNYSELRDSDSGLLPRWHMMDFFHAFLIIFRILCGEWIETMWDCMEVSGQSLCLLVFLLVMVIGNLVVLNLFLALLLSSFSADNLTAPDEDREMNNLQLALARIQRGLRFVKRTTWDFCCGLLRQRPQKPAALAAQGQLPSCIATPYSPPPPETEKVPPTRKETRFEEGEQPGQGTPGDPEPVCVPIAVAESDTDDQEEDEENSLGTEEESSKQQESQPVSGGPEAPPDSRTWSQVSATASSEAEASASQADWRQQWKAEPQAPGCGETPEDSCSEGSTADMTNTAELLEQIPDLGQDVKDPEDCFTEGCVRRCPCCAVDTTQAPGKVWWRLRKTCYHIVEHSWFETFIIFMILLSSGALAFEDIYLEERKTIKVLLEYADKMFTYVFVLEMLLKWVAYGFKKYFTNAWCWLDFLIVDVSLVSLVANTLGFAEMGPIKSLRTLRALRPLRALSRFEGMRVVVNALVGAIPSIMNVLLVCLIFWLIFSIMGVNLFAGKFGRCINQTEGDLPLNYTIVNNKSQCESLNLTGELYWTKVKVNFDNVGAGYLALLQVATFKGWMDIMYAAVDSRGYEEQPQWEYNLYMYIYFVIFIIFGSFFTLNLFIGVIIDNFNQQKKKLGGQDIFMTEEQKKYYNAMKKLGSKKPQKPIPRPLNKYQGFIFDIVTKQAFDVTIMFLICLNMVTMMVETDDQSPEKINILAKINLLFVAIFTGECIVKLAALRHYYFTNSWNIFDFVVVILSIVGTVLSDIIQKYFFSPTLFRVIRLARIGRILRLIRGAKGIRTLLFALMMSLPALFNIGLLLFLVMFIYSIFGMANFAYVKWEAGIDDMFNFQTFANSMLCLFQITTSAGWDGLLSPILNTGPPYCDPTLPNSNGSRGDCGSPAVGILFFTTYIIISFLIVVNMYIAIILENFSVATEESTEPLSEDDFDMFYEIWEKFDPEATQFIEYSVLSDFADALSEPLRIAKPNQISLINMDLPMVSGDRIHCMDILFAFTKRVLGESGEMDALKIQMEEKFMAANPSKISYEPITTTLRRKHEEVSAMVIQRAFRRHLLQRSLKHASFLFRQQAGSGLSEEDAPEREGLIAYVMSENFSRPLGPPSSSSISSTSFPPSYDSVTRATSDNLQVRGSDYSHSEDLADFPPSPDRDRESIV
method notes: PatchXpress Nav1.5 channel assay in CHL-Nav1.5 cells
Format: cell-based
test context: read-out: IC50 of Nav1.5 channel inhibition
measurement name: IC50
Respond with the figure and its unit, in that order.

For the molecule COCCNCCCn1c(C(=O)CF)c(-c2ccc(C)cc2)c2c(N)ncnc21 , give its reported IC50.
56.8 µM
